tested on: MMP-13 gene expression; test: PTH stimulated MMP-13 gene expression in UMR 106-01 cells, real time quantitative RT-PCR; format: cell-based, rat; conditions: summary of the table's results
PROPERTY: effect on PTH stimulated MMP-13 gene expression (in words)

[[record]]
molecule = "Oc1ccc(C=Cc2cc(O)cc(O)c2)cc1 [Resveratrol, 3,5,4′-trihydroxystilbene]"
tested_system = "MMP-13 gene expression"
reading = "decreases the expression"

[[record]]
molecule = "CC(=O)Nc1ccc(OC(=O)OC2CC(C)CCC2C(C)C)cc1 (stereo not shown)"
tested_system = "MMP-13 gene expression"
reading = "decreases the expression"

[[record]]
molecule = "CC(=O)O[C@@H]1CC[C@@]2(C)[C@@H](CC[C@]3(C)[C@@H]2C(=O)C=C2[C@@H]4[C@@H](C)[C@H](C)CC[C@]4(C)CC[C@]23C)[C@@]1(C)C(=O)O"
tested_system = "MMP-13 gene expression"
reading = "decreases the expression"

[[record]]
molecule = "CC1CCC(C(C)C)C(OC(=O)Nc2ccccc2O)C1 (stereo not shown)"
tested_system = "MMP-13 gene expression"
reading = "decreases the expression"


The reported numbers originate from patent US20150086490A1.
